molecular target: Induced myeloid leukemia cell differentiation protein Mcl-1 (Homo sapiens); assay: disruptors of Mcl-1 and Bid BH3 peptide – biochemical, TR-FRET, 1536-well, primary screen (AID 1021); details: TR-FRET Mcl-1/Bid-Dy647 peptide binding, at 21.7 µM, hits give high values;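 note: His-tagged Mcl-1 with europium anti-His antibody binding Bid BH3 peptide; 0% = Mcl-1 plus peptide wells and 100% = peptide-only wells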
Among all 220,000 compounds or so, about 2,100 (0.95%) were called active. Only a selection was taken, and actives are over-represented in it overall.
Reported inhibition values for the following compounds.

Here are 3 compounds together with their reported answers.
INSERT INTO results (compound, measured_parameter, experimental_value) VALUES
  ('N#Cc1cccc(NC(=O)COC(=O)c2ccccc2C(=O)c2ccc(Cl)c([N+](=O)[O-])c2)c1', 'inhibition', '-7.05% (inactive)'),
  ('CCN(CC)S(=O)(=O)c1ccc(N2CCCC2)c(NS(=O)(=O)c2cccs2)c1', 'inhibition', '-28.4% (inactive)'),
  ('Cc1ccc2c(c1)C1CN(C)CCC1N2C(=S)Nc1ccc(OC(F)F)cc1 (stereo unspecified)', 'inhibition', '-15.3% (inactive)');

Find inhibition (Induced myeloid leukemia cell differentiation protein Mcl-1 (Homo sapiens)) for the entry CC(=O)NC(CC(=O)O)c1ccc(F)cc1 (stereo unspecified) -2.56% (inactive)

// repeat for CC1CN(S(=O)(=O)c2ccccc2)C(C)CN1S(=O)(=O)c1ccccc1 (stereo unspecified) and report -4.73% (inactive)

# repeat for Nc1nnc(SCC(=O)NC2CCCc3ccccc32)s1 (stereo unspecified) -21.1% (inactive)
